TEST_TARGET: BRM (Homo sapiens)
Construct: made in house; host or cells: High Five insect cells
Sequence (P51531 whole entry): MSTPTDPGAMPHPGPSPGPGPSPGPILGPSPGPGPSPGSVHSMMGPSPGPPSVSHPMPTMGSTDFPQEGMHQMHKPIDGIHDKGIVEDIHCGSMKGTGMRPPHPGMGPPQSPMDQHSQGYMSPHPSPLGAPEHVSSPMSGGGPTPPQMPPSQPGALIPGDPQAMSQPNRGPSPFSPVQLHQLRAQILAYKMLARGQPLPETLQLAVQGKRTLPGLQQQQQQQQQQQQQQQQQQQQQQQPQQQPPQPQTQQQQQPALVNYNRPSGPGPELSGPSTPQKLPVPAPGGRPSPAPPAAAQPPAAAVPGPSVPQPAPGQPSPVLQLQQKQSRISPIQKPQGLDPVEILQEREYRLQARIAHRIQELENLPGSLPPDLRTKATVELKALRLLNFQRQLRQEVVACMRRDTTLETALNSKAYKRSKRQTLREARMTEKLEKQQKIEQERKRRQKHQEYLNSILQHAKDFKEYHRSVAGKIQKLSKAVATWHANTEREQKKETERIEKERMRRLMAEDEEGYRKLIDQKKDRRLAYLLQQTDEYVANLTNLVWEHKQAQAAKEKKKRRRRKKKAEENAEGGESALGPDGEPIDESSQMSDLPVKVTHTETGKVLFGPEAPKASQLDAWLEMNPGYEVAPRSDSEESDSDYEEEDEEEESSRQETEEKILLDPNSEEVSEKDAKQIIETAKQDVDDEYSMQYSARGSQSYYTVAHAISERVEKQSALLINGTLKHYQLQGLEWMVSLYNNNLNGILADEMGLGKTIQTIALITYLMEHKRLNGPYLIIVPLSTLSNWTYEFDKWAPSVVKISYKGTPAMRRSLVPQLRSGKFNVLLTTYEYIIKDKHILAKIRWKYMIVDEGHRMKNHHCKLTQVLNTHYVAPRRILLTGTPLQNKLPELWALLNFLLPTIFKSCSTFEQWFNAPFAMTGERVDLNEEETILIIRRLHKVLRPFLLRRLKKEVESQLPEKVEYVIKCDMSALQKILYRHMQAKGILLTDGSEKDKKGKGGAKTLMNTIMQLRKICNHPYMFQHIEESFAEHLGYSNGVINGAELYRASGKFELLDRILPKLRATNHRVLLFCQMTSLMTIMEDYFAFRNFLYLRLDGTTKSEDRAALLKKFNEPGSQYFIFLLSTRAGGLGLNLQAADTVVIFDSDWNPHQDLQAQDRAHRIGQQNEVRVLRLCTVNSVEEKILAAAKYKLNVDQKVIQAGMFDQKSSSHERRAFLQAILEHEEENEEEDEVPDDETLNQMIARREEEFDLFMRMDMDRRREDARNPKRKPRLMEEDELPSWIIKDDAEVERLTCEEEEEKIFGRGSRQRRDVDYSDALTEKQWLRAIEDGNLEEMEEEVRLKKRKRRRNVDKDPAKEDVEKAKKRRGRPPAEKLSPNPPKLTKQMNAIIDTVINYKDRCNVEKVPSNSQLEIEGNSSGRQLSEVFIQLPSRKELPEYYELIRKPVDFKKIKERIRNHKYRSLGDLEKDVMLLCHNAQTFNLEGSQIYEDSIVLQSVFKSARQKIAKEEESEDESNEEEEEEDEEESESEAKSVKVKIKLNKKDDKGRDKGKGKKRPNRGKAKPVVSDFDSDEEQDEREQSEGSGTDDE
ASSAY_TEXT: ATPase catalytic activity assay (ADP-Glo), BRM
Type: biochemical
CONDITION_NOTES: ATPase assay, selectivity BRG1/BRM, Table 10
Protocol: The ATPase catalytic activity of BRM or BRG-1 was measured by an in vitro biochemical assay using ADP-Glo™ (Promega, V9102). The ADP-Glo™ kinase assay is performed in two steps once the reaction is complete. The first step is to deplete any unconsumed ATP in the reaction. The second step is to convert the reaction product ADP to ATP, which will be utilized by the luciferase to generate luminesce and be detected by a luminescence reader, such as Envision. […]
ATTRIBUTE_MEASURED: Ratio (BRG1 IC50 (μM) divided by BRM IC50 (μM))
Please reply with the value in numeric form only.

> print(dat)
                                   compound         test.target  data.value
1  O=C(NCc1cc2nc(N3CCCc4cc(N5C[C@@H](F)[C@H](F)C5)cnc43)ccc2cn1)c1cc(F)c2c(c1)S(=O)(=O)[C@@H](F)CCO2 [Compound 168]  BRM (Homo sapiens)       15.00

Qu. Please look up its Ratio (BRG1 IC50 (μM) divided by BRM IC50 (μM)): C[C@@H]1CN(c2cccc(-c3ccc4cnc(CNC(=O)c5cc(F)c6c(c5)S(=O)(=O)[C@H](F)CCCO6)cc4n3)n2)C[C@H](C)O1 [Compound 5]
Ans. 9.64

Qu. Consider the compound O=C(NCc1cc2nc(N3CCOc4cc(N5CC[C@H]5CF)cnc43)ccc2cn1)c1cc(F)c2c(c1)S(=O)(=O)[C@@H](F)CCO2 [Compound 31] and give its measured Ratio (BRG1 IC50 (μM) divided by BRM IC50 (μM)).
Ans. 18.05

Qu. Using the record for [2H]C1([2H])OC[C@H](F)S(=O)(=O)c2cc(C(=O)NCc3cc4nc(N5CCOc6ccc(C(F)F)nc65)ccc4cn3)cc(F)c21 [Compound 140] , report its Ratio (BRG1 IC50 (μM) divided by BRM IC50 (μM)).
Ans. 17.66

Qu. # input compound: COc1ccc(-c2ccc3cnc(CNC(=O)c4cc(F)c5c(c4)S(=O)(=O)[C@@H](F)CCO5)cc3n2)nc1C1CC1 [Compound 181] ; wanted: its Ratio (BRG1 IC50 (μM) divided by BRM IC50 (μM))
Ans. 29.09

Qu. Which Ratio (BRG1 IC50 (μM) divided by BRM IC50 (μM)) value belongs to COCc1cnc2c(c1)OCCN2c1ccc2cnc(CNC(=O)c3cc(F)c4c(c3)S(=O)(=O)[C@@H](F)CCO4)cc2n1 [Compound 224] ?
Ans. 15.91

Qu. Fill in: Ratio (BRG1 IC50 (μM) divided by BRM IC50 (μM)) of O=C(NCc1cc2nc(N3CCOc4cc(N5CC[C@@H](F)C5)cnc43)ccc2cn1)c1cc(F)c2c(c1)S(=O)(=O)[C@@H](F)CCO2 [Compound 182] is ___
Ans. 16.19

Qu. Recorded Ratio (BRG1 IC50 (μM) divided by BRM IC50 (μM)) of O=C(NCc1cc2nc(N3CCOc4ccc([C@H]5C[C@@H]5F)nc43)ccc2cn1)c1cc(F)c2c(c1)S(=O)(=O)[C@@H](F)CCO2 [Compound 164] , please.
Ans. 32.00

Qu. Entry under review: CCOc1ccc(-c2ccc3cnc(CNC(=O)c4cc(F)c5c(c4)S(=O)(=O)[C@@H](F)CCO5)cc3n2)nc1[C@H]1CC1(F)F [Compound 313] . Reported Ratio (BRG1 IC50 (μM) divided by BRM IC50 (μM))?
Ans. 36.05

Qu. Look up Ratio (BRG1 IC50 (μM) divided by BRM IC50 (μM)) for this compound: C[C@H](NC(=O)c1cc(F)c2c(c1)S(=O)(=O)[C@@H](F)CCO2)c1cc2nc(N3CCOc4cc(C5CC5)cnc43)ccc2cn1 [Compound 240]
Ans. 19.83

Qu. # input compound: O=C(NCc1cc2nc(-c3cccc(C4CC4)n3)ccc2cn1)c1cc(Cl)c2c(c1)S(=O)(=O)[C@@H](F)COC2 [Compound 302] ; wanted: its Ratio (BRG1 IC50 (μM) divided by BRM IC50 (μM))
Ans. 30.11
